B1: TPR t1 (parent)
chain: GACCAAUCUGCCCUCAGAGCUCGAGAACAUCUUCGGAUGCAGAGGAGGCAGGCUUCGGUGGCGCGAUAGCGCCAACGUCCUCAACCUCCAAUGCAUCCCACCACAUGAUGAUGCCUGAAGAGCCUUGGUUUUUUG

variants of: B1; assay: polymerase ribozyme fitness, log enrichment relative to wild type (log ratio); higher = more active; in vitro selection for triplet polymerase activity
measured_metric: polymerase ribozyme fitness (log ratio)
Just the number.

Below, 3 variants whose answers are already recorded.
>  <residues>
GACCAAUCUGCCCUCAGAGCUCGAGAACAUCUUCGGAUGCAGAGGAGGCAGGCUUCGGUGGCGCGAUAGCGCCAACGUCCUCAACCUCCAAUACAUCCCACCACAUGAUGUUGCCUGAAGACCCUUGGUUUUUUG

>  <reading>
-4.63

$$$$
>  <residues>
GACCAAUCUGCCCUCAGAGCUCGAGAACAUCUUCGGAUGAAGAGGAGGCAGGUUUCGGUGGCACGAUAGCGCCAACGUCCUCAACCUCCAAUGCAUCCCACCACAUGAUGAUGCCUGAAGAGCCUUGGUUUUUUG

>  <reading>
-2.24

$$$$
>  <residues>
GACCAAUCUGCCCUCAGAGUCCGAGAACAUCUUCGGAUGCAGAGGAGGCAGGCUUCGGUGGCGCGAUAGCGCCAACGUCCUCAACCUCCAAUGCAUCCCACCACAUGAUGAUGCCCGAAGAGCCUUGGUUUUUUG

>  <reading>
-2.85

$$$$

Now for another entry.
query: Which polymerase ribozyme fitness (log ratio) is listed for "GACCAAUCUGCCCUCAGAGUUCGAGAACAUCUUCGGAUGCAGAGGAGGCAGGCUUCGGUGGCGCGAUAGCGCCAACGUCCUCAACCUCCAAUGCAUCCCACCACAUGAUGAAGCCUGAAGAGCCUUGGUUUUUUG" ?
result: 0.887
